src = paper PMC3711439

- ASSAY_SYSTEM: PU.1 (human, UniProt P17947 1-270)
- ASSAY_TEXT: MST; MST: 20 mM Tris-HCl pH 7.6, 1.5 mM MgCl2, 0.5 mM EGTA, 10% glycerol, 300 mM KCl, 10 mM DTT, 25 C; 50 nM Cy3-dsDNA, PU.1 1:1 dilutions from 23 uM
- TEST_PARAMETERS: protein: recombinant; tags: N-terminal His-tag; label: Cy3 on upper strand
QUANTITY_KIND: pKd
Answers are plain numbers, as −log10 of the molar value.

{"BINDER": "PU.1 motif oligo 39 (dsDNA) DNA 1: ACGTCGCTTCCTCTCCACGT DNA 2: ACGTGGAGAGGAAGCGACGT", "pKd": 6.01}

Field: pKd. Fill in for each record below.
1. PU.1 motif oligo 13 (dsDNA) DNA 1: ACGTCACTTCCTCTACACGT DNA 2: ACGTGTAGAGGAAGTGACGT
2. PU.1 motif oligo 56 (dsDNA) DNA 1: ACGTCGTTTCCTCTTTACGT DNA 2: ACGTAAAGAGGAAACGACGT
3. PU.1 motif oligo 61 (dsDNA) DNA 1: ACGTATCTTCCTCATAACGT DNA 2: ACGTTATGAGGAAGATACGT
4. PU.1 motif oligo 36 (dsDNA) DNA 1: ACGTCCCTTCCTCTTTACGT DNA 2: ACGTAAAGAGGAAGGGACGT

6.25
6.17
6.10
6.17

Entry under review: PU.1 motif oligo 40 (dsDNA) DNA 1: ACGTCAGTTCCTTAAAACGT DNA 2: ACGTTTTAAGGAACTGACGT . Reported pKd?
6.09
